Entries annotated with measured growth inhibition
experiment: NCI Yeast Anticancer Drug Screen. Data for the rad50EPP+ strain (AID 151);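 further: 0% = growth of vehicle-treated control cultures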; conditions: S. cerevisiae rad50 mutant strain, at 11.0 µM, active compounds read high
Compounds without any hit were thinned out: in the full panel of roughly 79,000, 15% have a hit.
measuredParameter: growth inhibition (%)

> print(dat)
                                   compound  unitstring  numericreadout
1  NC1=NS(=O)(=O)N=C(N)C1=Cc1ccc([N+](=O)[O-])o1           %              64
2  Cc1cc2c(cc1C(=O)CCC(=O)O)CC1(C2)Cc2cc(C)c(C(=O)CCC(=O)O)cc2C1           %               8
3  C(CCSC1=NCCN1)CSC1=NCCN1 (tested in a mixture with another compound)           %              78
4               O=c1c2ccccc2ncn1COCc1ccccc1           %             -28
5              c1ccc2c(c1)c1ncccc1c1nccnc21           %              43

###

assay: NCI Yeast Anticancer Drug Screen. Data for the mlh1 rad18 strain (AID 175); conditions: S. cerevisiae mlh1 rad18 strain growth inhibition; at 50.0 µM (retest, dose inferred, filed as 5.0); active compounds read high
About 79,000 compounds went through this panel and 15% of them were active in at least one assay; those are over-represented in the sample as a whole.
Mark F for growth inhibition values under 60%, and T for everything at or above.

> print(dat)
                                    compound  categorylabel
 1  Cc1cc(S(=O)(=O)/N=C(/NN)NNc2cccc(C(F)(F)F)n2)c(S)cc1Cl              F
 2          NC(N)=N/N=C\c1c2ccccc2cc2ccccc12              T
 3  COc1cc(C2SCC(=O)N2c2nnc(C(F)(F)F)s2)cc(OC)c1OC (stereo not drawn)              F
 4  CCCCCCCCCCCCCCCCCCN(C)CC(COP(=O)([O-])OCC[N+](C)(C)C)OC (stereo not drawn)              T
 5  CC(C)C1=CC2=C[C@H](O)[C@H]3C(C)(C)CCC[C@]3(C)C2=C(O)C1=O              T
 6                     CCC(=O)c1cccc2ccccc12              F
 7  CC1(C)C(=O)OC(n2cc(F)c(=O)[nH]c2=O)C1=O (stereo not drawn)              F
 8             O=C1Nc2ccccc2/C1=C/COc1ccccc1              T
 9  CC[C@@]1(O)C(=O)OCc2c1cc1n(c2=O)Cc2cc3c(N)cccc3nc2-1              F
10  CN(C)Cc1cc(N=Nc2ccc(Cl)cc2)cc(CN(C)C)c1O              T
11  C=CC(C)(O)CCC1C(=C)C(O)CC2C(C)(C)CCCC12C (stereo not drawn)              F
12                  N#CSc1ccc(S(N)(=O)=O)cc1              T
13  O=C1OC(CCl)CN1/N=C/c1ccc([N+](=O)[O-])o1 (stereo not drawn)              T
14     COc1cc2ccc(/C=C\[N+](=O)[O-])cc2cc1OC              T
15  O=C1C=CC(=O)N1c1ccc2c(c1)Cc1cc(NC(=O)C(F)(F)F)ccc1-2              T
16  O=C(NCCCCCCCN1CCCCCCC1)C(C1CCCCC1)C1CCCCC1              T
17  COC(=O)C1=C(C)NC(C)=C(C(=O)OC)C1c1cccc(/[N+]([O-])=C/c2ccccc2)c1              F
18                 COc1ccc2ccc3ccccc3c2c1C=O              T
19           O=Nc1c(NO)ccc2nn(-c3ccccc3)nc12              T
20     Cc1ccc(Cl)c2[nH]c(-c3ccccc3)cc(=O)c12              T
21  O=C(Cc1csc2[n+]1C(=O)/C(=C/c1ccc(Cl)cc1)S2)Nc1ccccc1              T
22  CC/C(=C(\c1ccccc1)c1ccc(OCCN(C)C)cc1)c1ccccc1              T
